- TARGET DESC: T1, biotinylated recombinant mouse IL-12Rβ2 (mouse, UniProt P97378 24-637, random biotinylated)
- T1 construct: Recombinant protein produced in-house, biotinylated; also called mIL-12RB2; mouse IL-12RB2
- T1 sequence: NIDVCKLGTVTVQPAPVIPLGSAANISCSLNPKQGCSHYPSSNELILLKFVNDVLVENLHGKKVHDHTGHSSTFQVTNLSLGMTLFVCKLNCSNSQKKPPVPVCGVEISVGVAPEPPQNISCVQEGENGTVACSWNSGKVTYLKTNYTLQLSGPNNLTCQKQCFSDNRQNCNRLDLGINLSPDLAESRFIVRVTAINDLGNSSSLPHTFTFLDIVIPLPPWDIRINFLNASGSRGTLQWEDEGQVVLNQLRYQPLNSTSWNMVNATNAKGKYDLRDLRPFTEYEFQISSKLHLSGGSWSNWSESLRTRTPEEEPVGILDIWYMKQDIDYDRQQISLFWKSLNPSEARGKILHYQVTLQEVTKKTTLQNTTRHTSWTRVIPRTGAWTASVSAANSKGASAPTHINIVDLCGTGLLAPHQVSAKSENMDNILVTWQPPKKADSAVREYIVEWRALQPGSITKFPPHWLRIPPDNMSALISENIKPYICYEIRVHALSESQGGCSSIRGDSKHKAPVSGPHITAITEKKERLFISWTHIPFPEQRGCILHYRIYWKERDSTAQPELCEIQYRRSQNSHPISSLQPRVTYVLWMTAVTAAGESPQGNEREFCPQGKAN
- EXPERIMENT DESCRIPTION: ELISA, periplasmic extract on biotinylated mIL-12Rβ2, signal over control wells
I'd be grateful if you could share measured ELISA binding mIL-12RB2/control for these entries.

Example results:
BINDER	RESULT
anti-IL-12Rβ2 VHH clone 21054 (VHH, not shown: small tags and cut ends, tested as periplasmic extract; also called 3CRHM18) VHH: QVQLQESGGGLVQDGGSLRLSCAASGRTFSNYAMAWFRQAPGTEREFVAGLSGSGGDTAFYDNSVMGRFTISRDSAKNTMWLQINNLKPEDTAVYYCAAATHVVVSYGLVRKRGTYDYWGQGTQVTVSS	45 ratio
anti-IL-12Rβ2 VHH clone 21058 (VHH, not shown: small tags and cut ends, tested as periplasmic extract; also called 3CRHM49) VHH: QVQLQESGGGLVQAGGSLRLSCAASGRTFSNYAMAWFRQAPGTEREFVAGLSGSGGDTAFYDNSVMGRFTISRDSAKNTMWLQINNLKPEDTAVYYCAAATHVVVSYGLVRRRGTYDYWGQGTQVTVSS	41.2 ratio
anti-IL-12Rβ2 VHH clone 20514 (VHH, not shown: small tags and cut ends, tested as periplasmic extract; also called 3CAM70) VHH: QVQLQESGGGLVQAGDSLRLSCIASGPSFSSYGMGWFRQAPGKEREFVAAISRDARITDYADSVKGRFTISRDNAKNTAYLEMNSLNPEDTAVYFCAAAYTYSGSHYVTARSSDYHSWGQGTQVTVSS	17.8 ratio

Next binder, please.
Record request: ELISA binding mIL-12RB2/control value, item anti-IL-12Rβ2 VHH clone 20488 (VHH, not shown: small tags and cut ends, tested as periplasmic extract; also called 2CAM48) VHH: QVQLQESGGGLMQAGDSLRLSCAASGRTFSSYGMGWFRQAPGKEREFVAAISRGARITDYADSVKGRFTISRDNAKNTAYLQMNSLNPEDTAVYFCAAAYTYSGSHYVTARSSDYHSWGQGTQVTVSS
12.9 ratio
